- test_target: HEK-293 cells transfected with dox-inducible human wild type FGFR3 (Homo sapiens (Human), UniProt P22607)
- Sequence (P22607 23-806): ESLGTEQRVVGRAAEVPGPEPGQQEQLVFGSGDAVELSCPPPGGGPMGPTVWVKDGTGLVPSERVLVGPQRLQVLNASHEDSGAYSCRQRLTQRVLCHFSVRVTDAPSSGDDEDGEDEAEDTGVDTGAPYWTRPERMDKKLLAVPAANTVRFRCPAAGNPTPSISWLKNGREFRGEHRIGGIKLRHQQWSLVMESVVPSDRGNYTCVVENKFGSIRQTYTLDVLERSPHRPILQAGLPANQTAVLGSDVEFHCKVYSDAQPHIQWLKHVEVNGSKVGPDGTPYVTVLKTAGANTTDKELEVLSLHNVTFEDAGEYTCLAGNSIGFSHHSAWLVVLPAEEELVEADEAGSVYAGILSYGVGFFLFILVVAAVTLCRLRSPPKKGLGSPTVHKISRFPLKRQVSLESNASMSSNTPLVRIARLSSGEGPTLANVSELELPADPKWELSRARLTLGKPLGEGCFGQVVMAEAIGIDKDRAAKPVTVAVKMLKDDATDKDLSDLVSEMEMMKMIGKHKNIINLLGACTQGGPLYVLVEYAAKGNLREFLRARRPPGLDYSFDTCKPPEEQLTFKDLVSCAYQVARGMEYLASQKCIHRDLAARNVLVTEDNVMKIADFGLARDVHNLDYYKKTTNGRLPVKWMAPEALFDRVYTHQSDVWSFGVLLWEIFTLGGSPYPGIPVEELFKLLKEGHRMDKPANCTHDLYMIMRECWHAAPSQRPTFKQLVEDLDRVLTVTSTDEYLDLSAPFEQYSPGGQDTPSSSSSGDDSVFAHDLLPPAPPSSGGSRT
- assay_summary: FGFR3 pFGFR cell assay (ELISA)
- Assay type: cell-based
- assay_context: HEK-293 dox-inducible FGFR3, 1 hour compound, 100 ng/ml FGF-acidic
pIC50: −log10 of the molar value. Structures can show the parent of a compound that is named as a salt.
Some compounds, each annotated with its measured pIC50.
readout_name: pIC50

* C=CC(=O)Nc1ccc(C(=O)N2CC[C@@H](n3cc(-c4cc(OC)c5c(C#N)cnn5c4)cn3)C2)cc1 [Example 55] | 7.19
* C=CC(=O)Nc1ccc(C(=O)N2CC[C@H](n3cc(-c4cc(OC)c5c(C#N)cnn5c4)cn3)C2)c(C)c1 [Example 68] | 6.73
* C=CC(=O)N1CC(C(=O)N2CCN(c3ccc(-c4cc(OC)c5c(C#N)cnn5c4)cc3)CC2)C1 [Example 100] | 7.68
* C=CC(=O)N1CC[C@@H](C(=O)N2CCC(n3cc(-c4cc(OC)c5c(C#N)cnn5c4)cn3)CC2)C1 [Example 29] | 6.44
* C=CC(=O)N1CC(C(=O)N2CCC(n3cc(-c4cc(OCC(C)C)c5c(C#N)cnn5c4)cn3)CC2)C1 [Example 128] | 7.55
* C=CC(=O)N1CC2(CCN(C(=O)N3CCC(n4cc(-c5cc(OC)c6c(C#N)cnn6c5)cn4)CC3)CC2)C1 [Example 6] | 7.14
* C=CC(=O)N1CC(C(=O)N2CCC(n3cc(-c4cc(OC)c5c(Cl)cnn5c4)cn3)CC2)C1 [Example 122] | 7.15
* C=CC(=O)N1CC(CN2CCC(n3cc(-c4cc(OC)c5c(C#N)cnn5c4)cn3)CC2)C1 [Example 132] | 7.51
* C=CS(=O)(=O)Nc1ccc(C(=O)N2CCC(n3cc(-c4cc(OC)c5c(C#N)cnn5c4)cn3)CC2)cc1 [Example 196] | 7.59
* C=CC(=O)Nc1ccc(S(=O)(=O)N2CCC(n3cc(-c4cc(OC)c5c(C#N)cnn5c4)cn3)CC2)cc1 [Example 49, trifluoroacetate] | 7.70
* C=CC(=O)N1CC(C(=O)N2CCC(n3cnc(-c4cc(OC)c5c(C#N)cnn5c4)c3)CC2)C1 [Example 98] | 5.95
* C=CC(=O)N1CCC(C(=O)N2CCC(n3cc(-c4cc(OC)c5c(C#N)cnn5c4)cn3)CC2)C(F)(F)C1 (centres unmarked) [Example 15] | 8.00
* C=CC(=O)N1CC(F)(C(=O)N2CCC(n3ncc(-c4cc(OC)c5c(C#N)cnn5c4)c3C)CC2)C1 [Example 85] | 7.80
* C=CS(=O)(=O)N[C@@H]1CC[C@H](C(=O)N2CCC(n3cc(-c4cc(OC)c5c(C#N)cnn5c4)cn3)CC2)C1 [Example 191] | 7.70

The origin of these recorded values is patent US12180207B2.
